Each entry below carries its recorded fa (fraction of fluorophore accessible to the quencher), Apo-Tf.
assayed.target: apotransferrin (apo-Tf) (Homo sapiens)
Construct: purchased Sigma-Aldrich Chemical Co. (Schnelldorf, Germany)
assay.summary: Apo-Tf fluorescence quenching binding study
conditions.used: apo-Tf 1 µM, compound 0–8 µM, 298 K
Respond with the number and no other words.

Worked cases, fa (fraction of fluorophore accessible to the quencher), Apo-Tf given:
CCn1cc(C(=O)O)c(=O)c2ccc(C)nc21	0.48
CCn1cc(C(=O)[O-])c(=O)c2ccc(C)nc21.CCn1cc(C(=O)[O-])c(=O)c2ccc(C)nc21.O.O.O.O.[OH-].[Sm+3]	0.79
CCn1cc(C(=O)[O-])c(=O)c2ccc(C)nc21.CCn1cc(C(=O)[O-])c(=O)c2ccc(C)nc21.O.[OH-].[Tb+3]	0.65

Now for the compound whose fa (fraction of fluorophore accessible to the quencher), Apo-Tf we want.
Look at this compound and give its reported fa (fraction of fluorophore accessible to the quencher), Apo-Tf. CCn1cc(C(=O)[O-])c(=O)c2ccc(C)nc21.CCn1cc(C(=O)[O-])c(=O)c2ccc(C)nc21.O.O.O.O.[Gd+3].[OH-]
0.92

---

assayed.target: apotransferrin (apo-Tf) (Homo sapiens)
Construct: purchased Sigma-Aldrich Chemical Co. (Schnelldorf, Germany)
assay.summary: Apo-Tf fluorescence quenching binding study
conditions.used: apo-Tf 1 µM, 298 K
Each entry below carries its recorded n1 (Number of Binding Sites), Apo-Tf.
Respond with the number and no other words.

CCn1cc(C(=O)[O-])c(=O)c2ccc(C)nc21.CCn1cc(C(=O)[O-])c(=O)c2ccc(C)nc21.O.O.O.O.[Eu+3].[OH-] [Eu(nal)2, Eu(C12H11N2O3)2(OH)(H2O)·3H2O]	0.80
CCn1cc(C(=O)[O-])c(=O)c2ccc(C)nc21.CCn1cc(C(=O)[O-])c(=O)c2ccc(C)nc21.O.[OH-].[Tb+3] [Tb(nal)2, Tb(C12H11N2O3)2(OH)(H2O)·1.5H2O]	0.71
CCn1cc(C(=O)O)c(=O)c2ccc(C)nc21 [Nalidixic acid]	0.79
CCn1cc(C(=O)[O-])c(=O)c2ccc(C)nc21.CCn1cc(C(=O)[O-])c(=O)c2ccc(C)nc21.O.O.O.O.[Gd+3].[OH-] [Gd(nal)2, Gd(C12H11N2O3)2(OH)(H2O)·3H2O]	0.94

Look at this molecule and give its reported n1 (Number of Binding Sites), Apo-Tf. CCn1cc(C(=O)[O-])c(=O)c2ccc(C)nc21.CCn1cc(C(=O)[O-])c(=O)c2ccc(C)nc21.O.O.O.O.[OH-].[Sm+3] [Sm(nal)2, Sm(C12H11N2O3)2(OH)(H2O)·3H2O]
1.01

// next record CCn1cc(C(=O)[O-])c(=O)c2ccc(C)nc21.CCn1cc(C(=O)[O-])c(=O)c2ccc(C)nc21.CCn1cc(C(=O)[O-])c(=O)c2ccc(C)nc21.O.O.O.O.O.O.O.O.[La+3] [La(nal)3, La(C12H11N2O3)3(H2O)2·6H2O]
0.86

// next record CCn1cc(C(=O)[O-])c(=O)c2ccc(C)nc21.CCn1cc(C(=O)[O-])c(=O)c2ccc(C)nc21.O.O.O.[La+3].[OH-] [La(nal)2, La(C12H11N2O3)2(OH)(H2O)·2H2O]
1.00

---

assayed.target: human serum albumin (HSA) (Homo sapiens, UniProt P02768)
Construct: purchased Sigma-Aldrich Chemical Co. (Schnelldorf, Germany)
Sequence (P02768 25-609): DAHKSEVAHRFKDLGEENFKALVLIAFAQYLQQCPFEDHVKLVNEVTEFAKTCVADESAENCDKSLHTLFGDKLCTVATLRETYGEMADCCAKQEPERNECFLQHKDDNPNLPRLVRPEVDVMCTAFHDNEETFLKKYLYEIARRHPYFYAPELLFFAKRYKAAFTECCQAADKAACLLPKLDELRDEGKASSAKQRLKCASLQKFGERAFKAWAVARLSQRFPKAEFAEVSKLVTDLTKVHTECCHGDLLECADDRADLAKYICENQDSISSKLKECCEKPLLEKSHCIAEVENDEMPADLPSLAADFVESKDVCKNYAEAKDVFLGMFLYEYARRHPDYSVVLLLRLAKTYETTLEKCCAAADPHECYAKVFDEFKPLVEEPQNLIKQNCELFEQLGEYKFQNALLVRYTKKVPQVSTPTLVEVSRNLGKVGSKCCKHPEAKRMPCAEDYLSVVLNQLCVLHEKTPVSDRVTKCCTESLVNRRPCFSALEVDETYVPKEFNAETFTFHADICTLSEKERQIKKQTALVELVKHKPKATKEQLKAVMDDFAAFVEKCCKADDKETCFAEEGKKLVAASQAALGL
assay.summary: HSA fluorescence quenching binding study
conditions.used: HSA 2.5 µM, compound 0–8 µM, 298 K
quantity.measured: fa (fraction of fluorophore accessible to the quencher), HSA
Respond with the number and no other words.

CCn1cc(C(=O)[O-])c(=O)c2ccc(C)nc21.CCn1cc(C(=O)[O-])c(=O)c2ccc(C)nc21.O.O.O.O.[Gd+3].[OH-] [Gd(nal)2, Gd(C12H11N2O3)2(OH)(H2O)·3H2O]	1.25
CCn1cc(C(=O)[O-])c(=O)c2ccc(C)nc21.CCn1cc(C(=O)[O-])c(=O)c2ccc(C)nc21.O.O.O.O.[Eu+3].[OH-] [Eu(nal)2, Eu(C12H11N2O3)2(OH)(H2O)·3H2O]	1.17
CCn1cc(C(=O)[O-])c(=O)c2ccc(C)nc21.CCn1cc(C(=O)[O-])c(=O)c2ccc(C)nc21.O.O.O.[La+3].[OH-] [La(nal)2, La(C12H11N2O3)2(OH)(H2O)·2H2O]	1.09
CCn1cc(C(=O)[O-])c(=O)c2ccc(C)nc21.CCn1cc(C(=O)[O-])c(=O)c2ccc(C)nc21.O.[OH-].[Tb+3] [Tb(nal)2, Tb(C12H11N2O3)2(OH)(H2O)·1.5H2O]	1.13

Requested read-out fa (fraction of fluorophore accessible to the quencher), HSA, target or system human serum albumin (HSA) (Homo sapiens, UniProt P02768), entry CCn1cc(C(=O)[O-])c(=O)c2ccc(C)nc21.CCn1cc(C(=O)[O-])c(=O)c2ccc(C)nc21.O.O.O.O.[OH-].[Sm+3] [Sm(nal)2, Sm(C12H11N2O3)2(OH)(H2O)·3H2O]
1.05

// next record CCn1cc(C(=O)O)c(=O)c2ccc(C)nc21 [Nalidixic acid]
1.06

// next record CCn1cc(C(=O)[O-])c(=O)c2ccc(C)nc21.CCn1cc(C(=O)[O-])c(=O)c2ccc(C)nc21.CCn1cc(C(=O)[O-])c(=O)c2ccc(C)nc21.O.O.O.O.O.O.O.O.[La+3] [La(nal)3, La(C12H11N2O3)3(H2O)2·6H2O]
1.12

---

Each entry below carries its recorded pKd.
assayed.target: apotransferrin (apo-Tf) (Homo sapiens, UniProt P02787)
Construct: purchased Sigma-Aldrich Chemical Co. (Schnelldorf, Germany)
Sequence (P02787 20-698): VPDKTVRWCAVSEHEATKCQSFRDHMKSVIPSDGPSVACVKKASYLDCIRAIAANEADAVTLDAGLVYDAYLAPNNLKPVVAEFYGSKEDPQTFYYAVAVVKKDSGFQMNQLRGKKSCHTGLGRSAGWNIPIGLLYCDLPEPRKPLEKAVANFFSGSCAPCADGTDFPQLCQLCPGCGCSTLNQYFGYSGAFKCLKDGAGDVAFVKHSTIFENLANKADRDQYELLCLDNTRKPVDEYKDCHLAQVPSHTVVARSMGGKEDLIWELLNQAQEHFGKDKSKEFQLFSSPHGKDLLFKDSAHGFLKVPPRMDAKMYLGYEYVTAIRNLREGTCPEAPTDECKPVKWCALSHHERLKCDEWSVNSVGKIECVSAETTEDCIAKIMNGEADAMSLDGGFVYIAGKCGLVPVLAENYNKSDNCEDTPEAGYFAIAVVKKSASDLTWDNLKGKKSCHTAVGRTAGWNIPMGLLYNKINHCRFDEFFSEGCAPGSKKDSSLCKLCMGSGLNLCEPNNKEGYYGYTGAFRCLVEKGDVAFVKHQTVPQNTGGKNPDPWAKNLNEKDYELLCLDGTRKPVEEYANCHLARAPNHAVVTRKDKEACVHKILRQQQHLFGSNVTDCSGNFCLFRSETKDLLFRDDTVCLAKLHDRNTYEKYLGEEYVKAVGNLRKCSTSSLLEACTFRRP
assay.summary: Apo-Tf fluorescence quenching binding study
conditions.used: apo-Tf 1 µM, 298 K; read-out: Kd (dissociation constant), Apo-Tf
The meaning of pKd here: minus log10 of the concentration in molar units.

CCn1cc(C(=O)[O-])c(=O)c2ccc(C)nc21.CCn1cc(C(=O)[O-])c(=O)c2ccc(C)nc21.CCn1cc(C(=O)[O-])c(=O)c2ccc(C)nc21.O.O.O.O.O.O.O.O.[La+3]	5.06
CCn1cc(C(=O)[O-])c(=O)c2ccc(C)nc21.CCn1cc(C(=O)[O-])c(=O)c2ccc(C)nc21.O.O.O.O.[Gd+3].[OH-]	5.05
CCn1cc(C(=O)[O-])c(=O)c2ccc(C)nc21.CCn1cc(C(=O)[O-])c(=O)c2ccc(C)nc21.O.O.O.O.[OH-].[Sm+3]	5.21

Now for the compound whose pKd we want.
Look at this compound and give its reported pKd. CCn1cc(C(=O)[O-])c(=O)c2ccc(C)nc21.CCn1cc(C(=O)[O-])c(=O)c2ccc(C)nc21.O.[OH-].[Tb+3]
5.10

---

assayed.target: human serum albumin (HSA) (Homo sapiens)
Construct: purchased Sigma-Aldrich Chemical Co. (Schnelldorf, Germany)
assay.summary: HSA fluorescence quenching binding study
conditions.used: from Ksv* with τ0 = 10^−8 s, 298 K
quantity.measured: Kq (bimolecular quenching constant), HSA (M⁻¹ s⁻¹)
Respond numerically; units are M⁻¹ s⁻¹ and should not be typed.

Worked cases, Kq (bimolecular quenching constant), HSA given:
CCn1cc(C(=O)[O-])c(=O)c2ccc(C)nc21.CCn1cc(C(=O)[O-])c(=O)c2ccc(C)nc21.O.[OH-].[Tb+3] [Tb(nal)2, Tb(C12H11N2O3)2(OH)(H2O)·1.5H2O]	1.92e+13
CCn1cc(C(=O)[O-])c(=O)c2ccc(C)nc21.CCn1cc(C(=O)[O-])c(=O)c2ccc(C)nc21.O.O.O.[La+3].[OH-] [La(nal)2, La(C12H11N2O3)2(OH)(H2O)·2H2O]	1.09e+13
CCn1cc(C(=O)[O-])c(=O)c2ccc(C)nc21.CCn1cc(C(=O)[O-])c(=O)c2ccc(C)nc21.CCn1cc(C(=O)[O-])c(=O)c2ccc(C)nc21.O.O.O.O.O.O.O.O.[La+3] [La(nal)3, La(C12H11N2O3)3(H2O)2·6H2O]	2.75e+13
CCn1cc(C(=O)[O-])c(=O)c2ccc(C)nc21.CCn1cc(C(=O)[O-])c(=O)c2ccc(C)nc21.O.O.O.O.[Gd+3].[OH-] [Gd(nal)2, Gd(C12H11N2O3)2(OH)(H2O)·3H2O]	1.51e+13
CCn1cc(C(=O)O)c(=O)c2ccc(C)nc21 [Nalidixic acid]	1.25e+13

Now for the molecule whose Kq (bimolecular quenching constant), HSA we want.
Look at this molecule and give its reported Kq (bimolecular quenching constant), HSA. CCn1cc(C(=O)[O-])c(=O)c2ccc(C)nc21.CCn1cc(C(=O)[O-])c(=O)c2ccc(C)nc21.O.O.O.O.[OH-].[Sm+3] [Sm(nal)2, Sm(C12H11N2O3)2(OH)(H2O)·3H2O]
2.5e+13
